Molecular target: human growth hormone secretagogue receptor (hGHS-R1a) (Homo sapiens, UniProt Q92847)
Construct: purchased PerkinElmer BioSignal #RBHGHSM, lot#1887; host or cells: HEK-293, stably transfected
Sequence (Q92847 whole entry): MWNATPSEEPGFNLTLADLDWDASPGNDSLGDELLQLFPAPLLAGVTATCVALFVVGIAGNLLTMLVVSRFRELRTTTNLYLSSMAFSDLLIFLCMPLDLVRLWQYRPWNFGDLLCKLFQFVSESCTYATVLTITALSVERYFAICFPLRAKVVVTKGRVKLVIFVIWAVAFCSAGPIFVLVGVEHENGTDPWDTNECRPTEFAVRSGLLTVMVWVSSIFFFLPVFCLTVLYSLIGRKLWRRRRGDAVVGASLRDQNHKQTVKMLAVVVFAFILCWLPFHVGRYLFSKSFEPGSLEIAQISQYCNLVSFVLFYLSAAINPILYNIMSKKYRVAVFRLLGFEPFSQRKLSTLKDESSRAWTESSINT
Experiment: Competitive radioligand binding assay (ghrelin receptor), [125I]-ghrelin displacement
Conditions: binding activity at the human ghrelin receptor; [125I]-ghrelin displacement, hGHS-R1a/HEK-293 membranes; read-out: Ki

| Compound | Ki |
| --- | --- |
| CC(C)C1NCCOc2ccccc2C=CCNC(=O)C(Cc2ccccc2)NC(=O)C2(CCOCC2)NC1=O (stereo not drawn) [compound 140] | 0.1 to 10 µM |
| CCCC1NCCOc2ccccc2CCCNC(=O)C(Cc2ccccc2)NC(=O)C(CCCCN)NC1=O (stereo not drawn) [compound 69] | > 10 µM |
| CC(C)CC1NCc2cccc(c2)CCNC(=O)C(Cc2ccccc2)NC(=O)C2(CCCC2)NC1=O (stereo not drawn) [compound 107] | > 10 µM |
